Sourced from the supplement of paper PMC9170038

Tested on: MS2 coat protein
procedureText: apparent KD of MS2 coat protein; designed switch direction (-1 OFF switch, 1 ON switch): -1; higher = weaker reporter binding
conditionNotes: input ligand: FMN 200 uM
Assign T to entries whose apparent KD of MS2 coat protein meets or exceeds 100 nM; assign F to the rest.

AGAUCACGAGGAUAUCCAGUGUAGUACAUGAGGAUCACCCAUGUUGAUCGUGGAUUCUUGGGAGAAGGCGUGGUUG [Eternabot (L2) Solution 100] (Eterna round: R97, puzzle: Exclusion 5) :: T
UGAUCAGACCGAGGAUAUACAGGGAGCACGCACGUGAGUGCGUGCACUACAUGAGGAUCACCCAUGUAGAAGGCGGUCUGAUCU [JL ENG2 1.00] (Eterna round: R96, puzzle: Exclusion NG 2) :: T
ACAUGAGGAUCACCCAUGUCCGGUUGGUUUUCUCCGGCUGUUGAGGAUAUAGUCCGGUAUCCGCGCUAGAAGGUGAGGGUUGGC [Aenatbe mod 12] (Eterna round: R96, puzzle: Exclusion NG 3) :: T
AGCGCCAUCGUGAGAUGGCGUAUUACAUGAGGAUCACCCAUGUAGGAUAUCGAUUGCUUUGCAGUCGAGAAGGACAUGUCCUAG [JL ENG3 3.80 Mod F] (Eterna round: R96, puzzle: Exclusion NG 3) :: F
AAUUUACAUGAGGAUCACCCAUGUGAGGAUAUGGUUUCGCUGGCCGUAGCCAGUGGAACCAGAAGGCGCGUGAU [Mat - Exclusion 1 - JL Mod - D28] (Eterna round: R97, puzzle: Exclusion 1) :: T
GGGCCGGCCGGAGGAUAUGCGGCCCGGCCGGCCGGUGGGCCGGCCGGGACAUGAGGAUCACCCAUGUAGAAGGCCGGCCGGCCC [low energy, MS2 in another position, A 14%] (Eterna round: R96, puzzle: Exclusion NG 2) :: F
ACAAGCUUAAUCAGUAAGAACAUGAGGAUCACCCAUGUAAAUGAAAGGACUAUUGGGUUAUUUAAAGCUCGUCUUAU [JR_STOV1_Sub014] (Eterna round: R97, puzzle: Sensor, turn-off variant 1) :: F
AAAACGUGAGGAUAUCCAAUAUAUGACAUGAGGAUCACCCAUGUUUCCACUCGUACCUCCGGAGAAGGCACAUUUU [Ex5 #79] (Eterna round: R97, puzzle: Exclusion 5) :: F

###

System: MS2 coat protein
procedureText: apparent KD of MS2 coat protein; designed switch direction (-1 OFF switch, 1 ON switch): -1; higher = weaker reporter binding
conditionNotes: input ligand: none
Listed sequences paired with reported apparent KD of MS2 coat protein
metric: apparent KD of MS2 coat protein (nM)

GAAUGAGAGCAGGAUAUCUUAUAAAUGUAUGAAAGAGAAGGGCUCACAUGAGGAUCACCCAUGUGGUCCUAGAA [jl-ex6-4.78 jandersonlee mod] (Eterna round: R97, puzzle: Exclusion 6) :: 36.9
AUAAAGCAGUCAGGAUAUAUGAGAGGUCGUUUCAUAGAAGGGACAGCUCGUGCGUGGCUGACAUGAGGAUCACCCAUGUACGUU [Enrizala] (Eterna round: R96, puzzle: Exclusion NG 1) :: 37.6
AGUGUGUGGCAGGAUAUUCUAAUCUUGAGGAGGGAAGAAGGGUCUACAUGAGGAUCACCCAUGUAAGCGGUUGA [Ex6 #41] (Eterna round: R97, puzzle: Exclusion 6) :: 33.6
UAUUAUAAUGUAGGAUAUCUGCACGUGUAGUGCAGAGAAGGACAUGAGGAUCACCCAUGUAUAGUAGCUUCGGCUACAUUAUUU [ENG1-B3] (Eterna round: R96, puzzle: Exclusion NG 1) :: 71.2
GGGCCGGCCGGAGGAUAUGCGGCCCGGCCGGCCGGUGGGCCGGCCGGGACAUGAGGAUCACCCAUGUAGAAGGCCGGCCGGCCC [low energy, MS2 in another position, A 14%] (Eterna round: R96, puzzle: Exclusion NG 2) :: 15.9

###

Listed sequences paired with reported apparent KD of K4 kissing-loop reporter
Test system: K4 kissing-loop RNA reporter;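 further: bound reporter read as fluorescence of individual clusters on recovered sequencing chips by microscopy, with normalized cluster intensities fitted with a binding model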
procedureText: apparent KD of K4 kissing-loop reporter; higher = weaker reporter binding
conditionNotes: Eterna round: R107; input ligand: arginine 13.2 mM
metric: apparent KD of K4 kissing-loop reporter (nM)

GCAGUGAUGUUGCGCAUGUACAGUGGAGUGCGAGGACCGGUACGGCCGCCACUCGUACAGAACAAGCUAAUAUAUGGAUAGGUGA [IX] :: 525
UUAGGAGUGGGAGGAUAUCCUAAUGUGGGUGAUGUUAGUGAUGUUGAAAGUGUAGUGAUGUUGUGCGGAGAAGGUCCAGUGUUGA [BDazzled - #11 - Exc. FMN B] :: 133
CGCAAGCAGCUAGUGAUGUUGGCCGCCUUGCGAGGACCGGUACGGCCGCCACUCGGAGGCGGCUACUGAUAAACCGUCUAACGGA [KL-XTryp-A10] :: 67.2
AAGCAGUCACUCGAACCCAUCGAAGAUGGUCGAGGACCGGUACGGCCGCCACUCGGAGUGAUGUUCCGCAGACUGCAAAAUAAAA :: 464
GGCAGUGAUGUUGCCUAAGCAACGCAUGCGGAGGAUAUUCGUUCGGGAAGAAGGCCGCAGCGUUCUCUCGAGUGAUGUUCGAGUA [Same State FMN A GF 21] :: 176
ACCUACCAUUAGUGAUGUUAAUGGACGGAAGGAGCGCAGAUAUCUGCAGGUAGGUCGCCGAAGGCUAGACAUUGUCUAGCCAUUU [AK1.3 SS Arginine A] :: 161
ACGGGCGGCUGAAGGAGCGGGCGGGCCCGAGUGAUGUUCGGGUGGGCCGUGAGGUCCGGAGCCCAGGUAGGUCGCGGUUCCGCCU [#2 Same State - Arginine B Attempt #14 (HarryS)] :: 119
AAACAUUGGUCGGAUACCAGCUUGAUCGGAAAACGAUCUGCUGGAGUGAUGUUCCAAUAAAGCCCUUGGCAGCCGACCGAUGAAA [MAT - Same State Theophlline B - Mod of Eli - D14] :: 679
GGGCCUCUGGCUGAUACCAGUGAUAAAGGGUAAGAGACAGGGAGUGAUGUUCCCUUUAGCCACCCUUGGCAGCAGUUUAAGUUUG [Exclusion Theophylline B GF 18] :: 82.8
AAUAUCUAGUAUAUAUUUUAUAAAACAGAUACCAGUGAUUAUAUACACCCUUGGCAGCUGGACGAGUGAUGUUCGUAUAUAUUAA [JR_SSTheophyA_Sub008] :: 188
GGCAUGCAUGGAAACAUGCAUGCCAUGCCUCGAGGACCGGUACGGCCGCCACUCGUUAAAAGAAAUGCCAGUGAUGUUGGCCGAA :: 430
AGUGAUGUGGGAAGGAGCGGUACAUGACUUCAGUGAUGUUGAAGUGAUGAUUUAGUGAUGUGCCAGGUAGGUCGCCUAGAUGUUA [KL-XARG-B7] :: 36.7

###

Test system: MS2 coat protein
procedureText: apparent KD of MS2 coat protein; higher = weaker reporter binding
conditionNotes: Eterna round: R107; input ligand: arginine 13.2 mM
Listed sequences paired with reported apparent KD of MS2 coat protein
metric: apparent KD of MS2 coat protein (nM)

AUAACAUGAGGAUCACCCAUGUAAGGUGAUACCAGACGAAGUAAAGUCCCUUGGCAGCACAAGUAAAGUUACGAAUAUUGAUAGA [JR_SSTheophyA_Sub004] :: 62.2
UGCUACAUGAGGAUCACCCAUGUGGGUGAUACCAGCAUUCGUUUAUGCCCUUGGCAGCGCAGCCGAACCAAUCAUUCGGCAGAAA [Artiusar] :: 21
AGAGCAUUGACGGCCGCCACUCGUGUCACAUGAGGAUCACCCAUGUGAUGGGUGAUAGCCCGGUUGAGGACCGGGUCAAUGCUCA [Omei Tryp SS B v7] :: 13.1
UAAAACAUGAGGAUCACCCAUGUAUUGAGUCGAGGACCGGUACGGCCGCCACUCGGCAAUAAUAACGACGCAUAGCAUGUAGGAA [theeternabot_sameState_MS2_Trp_A_41] :: 12.8
CUCUGAGUGAGGAAUCACUCAGAGGCGGAUACCAGCGAGGUCCAUCGCCCUUGGCAGCCGAACAUGAGGAUCACCCAUGUCGGUA [#1 Same State - Theophylline A Attempt #23 (HarryS)] :: 9.44
UCGUGUAUAUCGGAUACCAGUGAGAACGAUACAUGAGGAUCACCCAUGUGAGUUGAUGUACACCCUUGGCAGCUGUAUAUAUCUA [gghullin] :: 18.9

###

Test system: MS2 coat protein
procedureText: apparent KD of MS2 coat protein; designed switch direction (-1 OFF switch, 1 ON switch): 1; higher = weaker reporter binding
conditionNotes: input ligand: FMN 200 uM
Assign met to entries whose apparent KD of MS2 coat protein meets or exceeds 30 nM; assign not met to the rest.

GAGUAGUUGGGAGGAUAUCGAUUGUUAUAGAAUCGAGAAGGUUUUAACAUGAGGAUCACCCAUGUAGGACUAUUCCUGUGUAUC [Parity 73 - Jieux - Same State NG 1] (Eterna round: R96, puzzle: Same State NG 1) :: met
AGAUCAUGACGAGGAUAUCCGACAUGAGGAUCACCCAUGUAUGUCGGAGGACGCGUACGUCCAAAGGAGAAGGCGUCGUGGUCA [JL SSNG2 1.02] (Eterna round: R96, puzzle: Same State NG 2) :: not met
ACUAAAACUGCAGGAUAUGUCCGGAACUCCGUUACAGAAGGGCAACGCACUGUUGAGGGCACGACAUGAGGAUCACCCAUGUAG [Eternabot solution 46] (Eterna round: R96, puzzle: Same State NG 1) :: not met
GUAGCAUACCGAGGAUAUUCAUAUUACAUGAGGAUCACCCAUGUUAAAGAUAGGCGAAAGCCUUGGGAGAAGGCGGAAUGCUAC [Xeonanis - 20 Mod68] (Eterna round: R96, puzzle: Same State NG 2) :: not met
UAGAUUCACGUAGGAUAUCGACCUACAUGAGGAUCACCCAUGUUUUUGAAUAGAUUUUUUUGUUACGAGAAGGACGUUAUGUAU [JR_SSNG2_Sub064] (Eterna round: R96, puzzle: Same State NG 2) :: met
CCAAAGUACAAUUUAGAUCUACAUGAGGAUCACCCAUGUACUGAGGAUAUCAGCUCGUUUAGAGCUGAGAAGGCAGAAUUAAUU [SSNG3/4-A3] (Eterna round: R96, puzzle: Same State NG 3) :: met
GGCUGCAAUUAUGAGGAUAUGUUCGGAUGAACAUGAGGAUCACCCAUGUGGCGAUAGCUAUCUGUGCAGAAGGUGUAGUGGUAGC [Edlexete] (Eterna round: R96, puzzle: Same State 2) :: met
AGGACGAGCACAGGAUAUCCACGGAAAAGACGCGGAGAAGGGUGAAGUCAUGGAAAGAAAAGACAUGAGGAUCACCCAUGUAAA [Dibema] (Eterna round: R96, puzzle: Same State NG 1) :: not met
UGGCUGGUGCUAGGAUAUGCAUGAGGCAUCCUCGUAGAAGGAGCACGACAUGAGGAUCACCCAUGUAGCCGUCCGUAGACGGCU [salish99_SSNG1_r04_010] (Eterna round: R96, puzzle: Same State NG 1) :: met
GGAGCCGGCCUAGGAUAUUUCAUAUAAAUACAUGAGGAUCACCCAUGUAGGCCAGAAGGCCUUGGGAAGAAGGAGGUCGGCUCC [Loop Effect - U25,U29] (Eterna round: R96, puzzle: Same State NG 2) :: not met
ACAUAGGUUUCAGGAUAUGGGUAAAUUCCCAACAUGAGGAUCACCCAUGUCCGUUGGGAUAACAUCCAGAAGGGAAGCCACAUA [MOD2 Eternabot Solution 1 (Score 87.5)] (Eterna round: R96, puzzle: Same State NG 2) :: met
ACCCGCGACGGAGGAUAUGGGCACUCGGCGAAAUAAACCGCCAUAACAUGAGGAUCACCCAUGUCCCAGAAGGCCGUCGCAAUC [Anlelaen] (Eterna round: R96, puzzle: Same State NG 2) :: met
UAAUAAAAGGAUAUACAUGAGGAUCACCCAUGUCCGUCUGCCAAGGAUAUCUAGGAUCAAGCAGCAGAGAAGGUGGCACGCCAC [Eternabot solution 35] (Eterna round: R96, puzzle: Same State NG 3) :: not met
UUGUUUUGUAAUUAACAUGAGGAUCACCCAUGUCUUGGCUCAGAGGAUAUACAUGUUUGAUUGUAGUAGAAGGCUGAAUGUUGU [JR_SSNG3_Sub094] (Eterna round: R96, puzzle: Same State NG 3) :: met
GGUGCGAAUAAAGCCUACAUGAGGAUCACCCAUGUAUGUAGGCAGGAUAUCGUUUGCUUUGCAAACGAGAAGGGCUGACGCACC [JL SSNG3 1.17] (Eterna round: R96, puzzle: Same State NG 3) :: not met
UUACUCAUGUAAGGAUAUGCAGCCGAAACGGCUGCAGAAGGUACUAUAAUACAUGAGGAUCACCCAUGUCUUUUUAAUUUUUAC [Mat - Same State NG 1 - JL mod - D70] (Eterna round: R96, puzzle: Same State NG 1) :: met
CCACUCUGCGGAGGAUAUGGGCCUGCCCGGGAUAACGGGCCUAAUACAUGAGGAUCACCCAUGUCCCAGAAGGCCGCUAGAGCC [Xeusza] (Eterna round: R96, puzzle: Same State NG 2) :: not met
AUACAUAUCAGAGGAUAUCACGUCGAAUAGACGUGAGAAGGCUGAUCACACAUGAAUAUUAAUACAUGAGGAUCACCCAUGUAU [SSNG1/14-A1] (Eterna round: R96, puzzle: Same State NG 1) :: not met
